- System: SW-620 colon
- method: NCI-60 one-dose screen, 48 h (100 = growth as untreated, 0 = no growth, -100 = all killed)
- measurement context: 10 µM unless noted
Compounds without any hit were thinned out: in the full panel of roughly 83,000, 20% have a hit.
Threshold check on growth: strictly below 90% is criterion met; on or above 90% is criterion not met.

Identify whether the compound Cc1nc2sccn2c1-c1csc(Nc2ccccc2Cl)n1 records growth below 90%.
criterion met

Identify whether the compound CCCCCCCCCCn1cc[n+](C)c1 records growth below 90%.
criterion met

Identify whether the compound COc1ccc(C2=CC(c3ccc(Oc4ccnc5cc(Cl)ccc45)c(OC)c3)c3c(nc(OC)[nH]c3=O)N2)cc1 (configuration not stated) records growth below 90%.
criterion met

Identify whether the compound CC(C)(C)c1cn2cccc(C(=O)N3CCN(CC(=O)Nc4ccc(Cl)cc4C(=O)c4ccccc4Cl)CC3)c2n1 records growth below 90%.
criterion met

Identify whether the compound COC(=O)c1ccc(C)cc1 records growth below 90%.
criterion not met

Identify whether the compound CSc1ccccc1C#C/C=C\C#Cc1ccccc1N1CCCC1=O records growth below 90%.
criterion met

Identify whether the compound O=C1NC(Cc2c[nH]c3ccccc23)C(=O)N1Cc1ccc(Cl)cc1 (configuration not stated) records growth below 90%.
criterion not met

Identify whether the compound CCCCCCCCCCCCNC(=S)N/N=C/c1ccc(Cl)c(Cl)c1 records growth below 90%.
criterion not met

Identify whether the compound COC1=CC(c2ccc[nH]2)=N/C1=C\c1[nH]c(C)c(C(=O)CCCCC(=O)Nc2ccccc2)c1C records growth below 90%.
criterion met

Identify whether the compound C[N+](C)(C)c1ccc(CC2c3ccccc3-c3ccccc32)cc1 records growth below 90%.
criterion met

Identify whether the compound Cc1cc(C(=O)O)c(N)c(C)n1 records growth below 90%.
criterion not met

Identify whether the compound CCCCCCCCCCCCOB(OCCCCCCCCCCCC)OCCCCCCCCCCCC records growth below 90%.
criterion not met

Identify whether the compound CCCCCCCN(CCCCCCC)C(=N)c1ccc(OC)c2ccccc12 records growth below 90%.
criterion met

Identify whether the compound CCCCOc1nc2c(C)cccc2cc1C1CNC(=O)c2ccccc2N1 (configuration not stated) records growth below 90%.
criterion met

Identify whether the compound COc1ccc(NC(=O)c2cc3ccccc3nc2Nc2cc(OC)c(OC)c(OC)c2)cc1 records growth below 90%.
criterion met

Identify whether the compound COc1cc(OC)c(C(=O)/C=C/c2ccc(C#N)cc2)c(OC)c1 records growth below 90%.
criterion met

----------
- Test system: LOX IMVI melanoma
- method: NCI-60 one-dose screen, 48 h (100 = growth as untreated, 0 = no growth, -100 = all killed)
- measurement context: 10 µM unless noted
Compounds without any hit were thinned out: in the full panel of roughly 83,000, 20% have a hit.
Threshold check on growth: strictly below 90% is 1; on or above 90% is 0.

Identify whether the compound Cc1cc(Cl)ccc1OC(C)C(=O)Nc1nnc(C2CC2)s1 (configuration not stated) records growth below 90%.
0

Identify whether the compound COc1ccc(C(=O)c2cc(OC)c(OC)c(OC)c2)cc1/C=C/C(=O)c1ccc(OC)c(OC)c1 records growth below 90%.
1

Identify whether the compound CCN(CC)CCSc1c2ccc(Cl)cc2nc2ccc(OC)cc12 records growth below 90%.
1

Identify whether the compound O=C(O)Cc1ccc2c(c1)Cc1cccnc1O2 records growth below 90%.
0

Identify whether the compound COc1cccc(NC(=O)c2sc3nc4c(cc3c2N)CCCC4)c1 records growth below 90%.
1

Identify whether the compound COc1ccc2c(c1)C(=O)/C(=C/c1ccc(O)cc1)O2 records growth below 90%.
1
